Test system: Rattus norvegicus
Assay: In vivo activity was determined by rat pouch assay at concentration of 2 mg/kg
Assay type: functional
inhibition in vivo at 2 mg/kg by entry:
READOUT: inhibition in vivo at 2 mg/kg (%)

* Cc1nc(-c2ccccc2)c(-c2ccc(S(N)(=O)=O)cc2)s1 | 59
* COc1ccc(-c2nc(-c3ccccc3Cl)sc2-c2ccc(S(N)(=O)=O)cc2)cc1F | 33
* Cc1nc(-c2ccc(S(N)(=O)=O)cc2)c(-c2ccccc2)s1 | 7
* NS(=O)(=O)c1ccc(-c2sc(-c3ccccc3Cl)nc2-c2ccc(F)cc2)cc1 | 50
* Cc1nc(-c2ccc(S(N)(=O)=O)cc2)c(-c2ccc(Cl)cc2)s1 | 30
* Cc1nc(-c2ccc(Cl)cc2)c(-c2ccc(S(N)(=O)=O)cc2)s1 | 42

* * *

Form field: pIC50 (one value per entry).
Biological target: Prostaglandin G/H synthase 2 (Homo sapiens, UniProt P35354)
Sequence (P35354 whole entry): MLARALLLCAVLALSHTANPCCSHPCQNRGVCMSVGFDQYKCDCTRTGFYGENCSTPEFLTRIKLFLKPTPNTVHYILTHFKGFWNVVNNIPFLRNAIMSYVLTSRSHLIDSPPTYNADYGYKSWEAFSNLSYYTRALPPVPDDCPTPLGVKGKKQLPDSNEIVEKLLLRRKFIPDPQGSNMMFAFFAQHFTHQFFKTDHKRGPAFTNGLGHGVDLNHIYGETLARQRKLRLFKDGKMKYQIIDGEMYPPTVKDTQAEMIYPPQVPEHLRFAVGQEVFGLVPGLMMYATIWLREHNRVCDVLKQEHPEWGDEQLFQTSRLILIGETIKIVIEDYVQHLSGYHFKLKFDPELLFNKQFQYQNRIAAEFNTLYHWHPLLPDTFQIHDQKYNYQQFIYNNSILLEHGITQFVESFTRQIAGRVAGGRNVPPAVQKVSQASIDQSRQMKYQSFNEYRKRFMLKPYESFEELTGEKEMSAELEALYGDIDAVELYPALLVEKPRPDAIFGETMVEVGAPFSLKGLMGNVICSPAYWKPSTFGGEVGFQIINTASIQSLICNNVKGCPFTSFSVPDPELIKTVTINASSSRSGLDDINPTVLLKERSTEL
pIC50: −log10 of the molar value.
READOUT: pIC50

• Cc1nc(-c2ccc(S(N)(=O)=O)cc2)c(-c2ccc(Cl)cc2)s1 = 7.74
• Cc1nc(-c2ccc(S(N)(=O)=O)cc2)c(-c2ccc(Br)cc2)s1 = 7.62
• Cc1nc(-c2ccc(Cl)cc2)c(-c2ccc(S(N)(=O)=O)cc2)s1 = 8.30
• COc1ccc(-c2nc(C)sc2-c2ccc(S(N)(=O)=O)cc2)cc1F = 7.55
• COc1ccc(-c2nc(NCc3ccccc3)sc2-c2ccc(S(N)(=O)=O)cc2)cc1F = 7.23
• NS(=O)(=O)c1ccc(-c2sc(-c3ccccc3Cl)nc2-c2ccc(F)cc2)cc1 = 7.89
• COc1ccc(-c2nc(-c3ccccc3Cl)sc2-c2ccc(S(N)(=O)=O)cc2)cc1F = 5.61
• Cc1nc(-c2ccccc2)c(-c2ccc(S(N)(=O)=O)cc2)s1 = 7.42
